- Tested on: RBM10 RRM1-ZnF-RRM2 (GST-tagged construct);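 further: 20 pmol protein with 1.5 nmol RNA pool for 30 min at 4°C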
- Assay text: RNAcompete 7-mer binding Z-score; higher = stronger binding preference
Over roughly 16,000 sequences, “Z-score” has its median near -0.37; the highest 2% begin near 3.1. Many of the other results were omitted from the sample, so the highest values are more common in it than they were.

- Sequence text: "AGGAUGC"
  RNAcompete 7-mer binding Z-score: 0.887
- Sequence text: "UUGUGGG"
  RNAcompete 7-mer binding Z-score: 2.44
- Sequence text: "GAGAAGG"
  RNAcompete 7-mer binding Z-score: 4.54
- Sequence text: "UGAGGGA"
  RNAcompete 7-mer binding Z-score: 4.05
- Sequence text: "GAACGGU"
  RNAcompete 7-mer binding Z-score: 1.56
- Sequence text: "GGAACGG"
  RNAcompete 7-mer binding Z-score: 4.03
- Sequence text: "AGAACGG"
  RNAcompete 7-mer binding Z-score: 1.84
- Sequence text: "UGGCGGG"
  RNAcompete 7-mer binding Z-score: 3.19
- Sequence text: "UCAGGGA"
  RNAcompete 7-mer binding Z-score: 2.05
- Sequence text: "GUAGUCU"
  RNAcompete 7-mer binding Z-score: -0.256
- Sequence text: "GAACGGC"
  RNAcompete 7-mer binding Z-score: 0.84
- Sequence text: "GCUGCGG"
  RNAcompete 7-mer binding Z-score: 1.05
- Sequence text: "AUGUGGG"
  RNAcompete 7-mer binding Z-score: 3.6
- Sequence text: "CUCCGAC"
  RNAcompete 7-mer binding Z-score: -0.664
- Sequence text: "CCGUUGG"
  RNAcompete 7-mer binding Z-score: 0.228
- Sequence text: "AUGCGCG"
  RNAcompete 7-mer binding Z-score: -0.0889
- Sequence text: "GAGAUGU"
  RNAcompete 7-mer binding Z-score: 0.392
- Sequence text: "GUGUGGG"
  RNAcompete 7-mer binding Z-score: 3.75
- Sequence text: "AAGAAGU"
  RNAcompete 7-mer binding Z-score: 0.818
- Sequence text: "AGGCCUG"
  RNAcompete 7-mer binding Z-score: -0.632
- Sequence text: "UGAUUCC"
  RNAcompete 7-mer binding Z-score: -0.668
- Sequence text: "GAGGAGG"
  RNAcompete 7-mer binding Z-score: 2.99
- Sequence text: "GUGUGGU"
  RNAcompete 7-mer binding Z-score: 1.87
- Sequence text: "AAGGAGG"
  RNAcompete 7-mer binding Z-score: 4.62
- Sequence text: "CGAGGCU"
  RNAcompete 7-mer binding Z-score: 0.217
- Sequence text: "AGACCGG"
  RNAcompete 7-mer binding Z-score: -0.366
- Sequence text: "ACAGUAA"
  RNAcompete 7-mer binding Z-score: 0.0677
- Sequence text: "AAAGGUA"
  RNAcompete 7-mer binding Z-score: 3.53
- Sequence text: "AUUCGAG"
  RNAcompete 7-mer binding Z-score: -0.114
- Sequence text: "CCCUCAG"
  RNAcompete 7-mer binding Z-score: -0.81
- Sequence text: "CGAACGG"
  RNAcompete 7-mer binding Z-score: 1.41
- Sequence text: "UCGGCUA"
  RNAcompete 7-mer binding Z-score: -0.537
- Sequence text: "GCGUGUC"
  RNAcompete 7-mer binding Z-score: -0.235
- Sequence text: "GAUUGCC"
  RNAcompete 7-mer binding Z-score: -0.672
- Sequence text: "GGUUAGU"
  RNAcompete 7-mer binding Z-score: 1.6
- Sequence text: "AGGAUGG"
  RNAcompete 7-mer binding Z-score: 3.4
- Sequence text: "GUCUCCU"
  RNAcompete 7-mer binding Z-score: -0.694
- Sequence text: "UGGAUGG"
  RNAcompete 7-mer binding Z-score: 3.42
- Sequence text: "AUGAAGG"
  RNAcompete 7-mer binding Z-score: 2.82
- Sequence text: "UUCGUCG"
  RNAcompete 7-mer binding Z-score: -0.3
- Sequence text: "UAGAAGG"
  RNAcompete 7-mer binding Z-score: 3.2
- Sequence text: "CGACGGG"
  RNAcompete 7-mer binding Z-score: 2.14
- Sequence text: "AGAAAAU"
  RNAcompete 7-mer binding Z-score: 0.0859
- Sequence text: "GCACGCG"
  RNAcompete 7-mer binding Z-score: -0.0598
- Sequence text: "CGGGAAC"
  RNAcompete 7-mer binding Z-score: 1.5
- Sequence text: "GGACGGC"
  RNAcompete 7-mer binding Z-score: 1.05
- Sequence text: "AACCUAA"
  RNAcompete 7-mer binding Z-score: -0.734
- Sequence text: "GAGGAUG"
  RNAcompete 7-mer binding Z-score: 2.57
- Sequence text: "GUAAAAA"
  RNAcompete 7-mer binding Z-score: 0.253
- Sequence text: "GUUGCCU"
  RNAcompete 7-mer binding Z-score: -0.613
- Sequence text: "ACUUUGG"
  RNAcompete 7-mer binding Z-score: -0.351
- Sequence text: "UGGAUGC"
  RNAcompete 7-mer binding Z-score: 0.778
- Sequence text: "GGACGGG"
  RNAcompete 7-mer binding Z-score: 4.18
- Sequence text: "CAGGAGA"
  RNAcompete 7-mer binding Z-score: 2.02
- Sequence text: "CGGAUGG"
  RNAcompete 7-mer binding Z-score: 1.87
- Sequence text: "GUGUGGA"
  RNAcompete 7-mer binding Z-score: 2.7
- Sequence text: "GUGAAGG"
  RNAcompete 7-mer binding Z-score: 3.69

----------
Recorded RNAcompete 7-mer binding Z-score by entry
- Test system: RBM10 RRM1-ZnF-RRM2 (GST-tagged construct);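 further: 20 pmol protein with 1.5 nmol RNA pool for 30 min at 4°C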
- Assay text: RNAcompete 7-mer binding Z-score; higher = stronger binding preference
In all, about 16,000 sequences were measured (“Z-score”: median about -0.37, highest 2% from about 3.1 on). The sample holds the highest values, similar sequences and a random draw of the others, so the mix is not that of the screen.
Endpoint label: RNAcompete 7-mer binding Z-score

- Sequence text: "CGGGUUU"
  Endpoint label: "RNAcompete 7-mer binding Z-score"
  Measured number: 1.01
- Sequence text: "GACGGGG"
  Endpoint label: "RNAcompete 7-mer binding Z-score"
  Measured number: 2.79
- Sequence text: "CACGGGG"
  Endpoint label: "RNAcompete 7-mer binding Z-score"
  Measured number: 2.77
- Sequence text: "UGAUAUA"
  Endpoint label: "RNAcompete 7-mer binding Z-score"
  Measured number: -0.366
- Sequence text: "GCUGGGG"
  Endpoint label: "RNAcompete 7-mer binding Z-score"
  Measured number: 2.46
- Sequence text: "GGAGGAA"
  Endpoint label: "RNAcompete 7-mer binding Z-score"
  Measured number: 3.08
- Sequence text: "AGAGGCA"
  Endpoint label: "RNAcompete 7-mer binding Z-score"
  Measured number: 0.421
- Sequence text: "UCUGAUC"
  Endpoint label: "RNAcompete 7-mer binding Z-score"
  Measured number: -0.876
- Sequence text: "AAAGGAG"
  Endpoint label: "RNAcompete 7-mer binding Z-score"
  Measured number: 3.75
- Sequence text: "UGCGCUG"
  Endpoint label: "RNAcompete 7-mer binding Z-score"
  Measured number: -0.103
- Sequence text: "GGAGGGA"
  Endpoint label: "RNAcompete 7-mer binding Z-score"
  Measured number: 3.6
- Sequence text: "GAAGGAA"
  Endpoint label: "RNAcompete 7-mer binding Z-score"
  Measured number: 4.54
- Sequence text: "AGAGGGC"
  Endpoint label: "RNAcompete 7-mer binding Z-score"
  Measured number: 1.02
- Sequence text: "ACUAGGC"
  Endpoint label: "RNAcompete 7-mer binding Z-score"
  Measured number: -0.235
- Sequence text: "AUAGAGG"
  Endpoint label: "RNAcompete 7-mer binding Z-score"
  Measured number: 1.79
- Sequence text: "UAAGGAG"
  Endpoint label: "RNAcompete 7-mer binding Z-score"
  Measured number: 1.9
- Sequence text: "UGGCUAU"
  Endpoint label: "RNAcompete 7-mer binding Z-score"
  Measured number: -0.00148
- Sequence text: "CAAAUAG"
  Endpoint label: "RNAcompete 7-mer binding Z-score"
  Measured number: -0.144
- Sequence text: "ACCCAGC"
  Endpoint label: "RNAcompete 7-mer binding Z-score"
  Measured number: -0.785
- Sequence text: "GGAGGGG"
  Endpoint label: "RNAcompete 7-mer binding Z-score"
  Measured number: 4.18
- Sequence text: "GGGGGGG"
  Endpoint label: "RNAcompete 7-mer binding Z-score"
  Measured number: 2.58
- Sequence text: "UACGGGU"
  Endpoint label: "RNAcompete 7-mer binding Z-score"
  Measured number: 2.02
- Sequence text: "AGCAAGU"
  Endpoint label: "RNAcompete 7-mer binding Z-score"
  Measured number: -0.0343
- Sequence text: "AACGGGG"
  Endpoint label: "RNAcompete 7-mer binding Z-score"
  Measured number: 3.65
- Sequence text: "UGAGGGC"
  Endpoint label: "RNAcompete 7-mer binding Z-score"
  Measured number: 2.22
- Sequence text: "GCAGGAA"
  Endpoint label: "RNAcompete 7-mer binding Z-score"
  Measured number: 2.07
- Sequence text: "UUUGGAU"
  Endpoint label: "RNAcompete 7-mer binding Z-score"
  Measured number: -0.125
- Sequence text: "CCGCUAG"
  Endpoint label: "RNAcompete 7-mer binding Z-score"
  Measured number: -0.588
- Sequence text: "UAAGGAA"
  Endpoint label: "RNAcompete 7-mer binding Z-score"
  Measured number: 1.66
- Sequence text: "UCGGAAC"
  Endpoint label: "RNAcompete 7-mer binding Z-score"
  Measured number: 0.0532
- Sequence text: "ACCCUCA"
  Endpoint label: "RNAcompete 7-mer binding Z-score"
  Measured number: -0.846
- Sequence text: "CGUGGGG"
  Endpoint label: "RNAcompete 7-mer binding Z-score"
  Measured number: 3.57
- Sequence text: "UUAGAGG"
  Endpoint label: "RNAcompete 7-mer binding Z-score"
  Measured number: 1.24
- Sequence text: "AGAGCGA"
  Endpoint label: "RNAcompete 7-mer binding Z-score"
  Measured number: 0.581
- Sequence text: "GACGGGU"
  Endpoint label: "RNAcompete 7-mer binding Z-score"
  Measured number: 2.37
- Sequence text: "AGAGGGG"
  Endpoint label: "RNAcompete 7-mer binding Z-score"
  Measured number: 1.94
- Sequence text: "UAACGCU"
  Endpoint label: "RNAcompete 7-mer binding Z-score"
  Measured number: -0.646
- Sequence text: "CGUGGGC"
  Endpoint label: "RNAcompete 7-mer binding Z-score"
  Measured number: 2.21
- Sequence text: "UUGCGGU"
  Endpoint label: "RNAcompete 7-mer binding Z-score"
  Measured number: -0.0161
- Sequence text: "AAAAUGG"
  Endpoint label: "RNAcompete 7-mer binding Z-score"
  Measured number: 2.68
- Sequence text: "UCAUUCU"
  Endpoint label: "RNAcompete 7-mer binding Z-score"
  Measured number: -0.752
- Sequence text: "CGCACCC"
  Endpoint label: "RNAcompete 7-mer binding Z-score"
  Measured number: -0.748
- Sequence text: "UAAGGAU"
  Endpoint label: "RNAcompete 7-mer binding Z-score"
  Measured number: 1.55
- Sequence text: "GGAGGGC"
  Endpoint label: "RNAcompete 7-mer binding Z-score"
  Measured number: 3.27
- Sequence text: "CCGCAUA"
  Endpoint label: "RNAcompete 7-mer binding Z-score"
  Measured number: -0.817
- Sequence text: "CACGGGA"
  Endpoint label: "RNAcompete 7-mer binding Z-score"
  Measured number: 1.66
- Sequence text: "CUGCCAG"
  Endpoint label: "RNAcompete 7-mer binding Z-score"
  Measured number: -0.606
